run.description: ML residues in milk of lactating dairy cows after single IM dose of ML/vaccine combination (LC-MS/MS)
Assay type: in vivo, Dairy cows (Friesian and Friesian cross)
run.conditions: female, Friesian and Friesian cross, cattle, milk fat, intramuscular, 0.3 mg/kg, nominal 0.3 mg/kg single IM dose of ML/Rotavec Corona combination; milk fat; individual cows; read-out: ML residue in milk fat, Day 21
measurement.label: concentration at 21 day (ng/g)
The answer is to be given in ng/g; state only the numeric part.

Return reported concentration at 21 day; argument: CO/N=C1\C[C@]2(C[C@@H]3C[C@@H](C/C=C(\C)C[C@@H](C)/C=C/C=C4\CO[C@@H]5[C@H](O)C(C)=C[C@@H](C(=O)O3)[C@]45O)O2)O[C@H](/C(C)=C/C(C)C)[C@H]1C
59

====

run.description: ML residues in milk of lactating dairy cows after single IM dose of ML/vaccine combination (LC-MS/MS)
Format: in vivo, Dairy cows (Friesian and Friesian cross)
run.conditions: female, Friesian and Friesian cross, cattle, milk, intramuscular, 0.3 mg/kg, nominal 0.3 mg/kg single IM dose of ML/Rotavec Corona combination; milk (whole milk); individual cows; read-out: ML residue in milk, Day 21
measurement.label: concentration at 21 day (ng/g)
Use ng/g as the unit, but write only the number.

What concentration at 21 day value was documented for this molecule, CO/N=C1\C[C@]2(C[C@@H]3C[C@@H](C/C=C(\C)C[C@@H](C)/C=C/C=C4\CO[C@@H]5[C@H](O)C(C)=C[C@@H](C(=O)O3)[C@]45O)O2)O[C@H](/C(C)=C/C(C)C)[C@H]1C [Moxidectin, moxidectin] ?
2.6

====

run.description: ML residues in milk of lactating dairy cows after single IM dose of ML/vaccine combination (LC-MS/MS)
Assay type: in vivo, Dairy cows (Friesian and Friesian cross)
run.conditions: female, Friesian and Friesian cross, cattle, milk fat, intramuscular, 0.4 mg/kg, nominal 0.4 mg/kg single IM dose of ML/Rotavec Corona combination; milk fat; individual cows; read-out: ML residue in milk fat, Day 7
measurement.label: concentration at 7 day (ng/g)
Give the quantity in ng/g, number only.

I am curious: what concentration at 7 day value has been reported for CO/N=C1\C[C@]2(C[C@@H]3C[C@@H](C/C=C(\C)C[C@@H](C)/C=C/C=C4\CO[C@@H]5[C@H](O)C(C)=C[C@@H](C(=O)O3)[C@]45O)O2)O[C@H](/C(C)=C/C(C)C)[C@H]1C ?
860

====

run.description: ML residues in milk of lactating dairy cows after single IM dose of ML/vaccine combination (LC-MS/MS)
Format: in vivo, Dairy cows (Friesian and Friesian cross)
run.conditions: female, Friesian and Friesian cross, cattle, milk, intramuscular, 0.4 mg/kg, nominal 0.4 mg/kg single IM dose of ML/Rotavec Corona combination; milk (whole milk); individual cows; read-out: ML residue in milk, Day 7
measurement.label: concentration at 7 day
Hi, when you answer, please include the unit after the number. Thanks!

Suppose we examine the compound CO/N=C1\C[C@]2(C[C@@H]3C[C@@H](C/C=C(\C)C[C@@H](C)/C=C/C=C4\CO[C@@H]5[C@H](O)C(C)=C[C@@H](C(=O)O3)[C@]45O)O2)O[C@H](/C(C)=C/C(C)C)[C@H]1C ; what concentration at 7 day value has been reported?
50 ng/g

====

run.description: ML residues in milk of lactating dairy cows after single IM dose of ML/vaccine combination (LC-MS/MS)
Format: in vivo, Dairy cows (Friesian and Friesian cross)
run.conditions: female, Friesian and Friesian cross, cattle, milk, intramuscular, 0.3 mg/kg, nominal 0.3 mg/kg single IM dose of ML/Rotavec Corona combination; milk (whole milk); individual cows; read-out: ML residue in milk, Day 7
measurement.label: concentration at 7 day (ng/g)
Output spec: scalar in ng/g, unitless text.

If you can, please state the reported concentration at 7 day value of CO/N=C1\C[C@]2(C[C@@H]3C[C@@H](C/C=C(\C)C[C@@H](C)/C=C/C=C4\CO[C@@H]5[C@H](O)C(C)=C[C@@H](C(=O)O3)[C@]45O)O2)O[C@H](/C(C)=C/C(C)C)[C@H]1C .
40
